molecular target: Dual specificity protein kinase CLK2 (Homo sapiens)
Sequence (P49760 whole entry): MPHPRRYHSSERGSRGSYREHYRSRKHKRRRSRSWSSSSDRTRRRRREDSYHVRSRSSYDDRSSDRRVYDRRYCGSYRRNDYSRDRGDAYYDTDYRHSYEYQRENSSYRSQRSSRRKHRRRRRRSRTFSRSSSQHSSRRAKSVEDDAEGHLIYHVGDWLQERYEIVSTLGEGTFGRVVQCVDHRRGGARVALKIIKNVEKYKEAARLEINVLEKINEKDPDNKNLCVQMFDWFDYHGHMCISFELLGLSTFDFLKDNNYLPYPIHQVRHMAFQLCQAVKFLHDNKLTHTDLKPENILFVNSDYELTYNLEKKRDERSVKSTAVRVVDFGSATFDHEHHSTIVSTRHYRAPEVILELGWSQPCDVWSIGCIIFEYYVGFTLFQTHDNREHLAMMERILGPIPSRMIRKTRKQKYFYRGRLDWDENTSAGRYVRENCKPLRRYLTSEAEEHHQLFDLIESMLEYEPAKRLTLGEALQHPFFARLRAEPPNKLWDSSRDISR

{"Compound Structure String": "CCn1nnc(CCNC(=O)Nc2nc(C)c(-c3ccc(S(C)(=O)=O)c(F)c3)s2)n1", "IC50, nM": 117}

###

molecular target: Phosphatidylinositol 4-kinase beta (Homo sapiens, UniProt Q9UBF8)
Sequence (Q9UBF8 whole entry): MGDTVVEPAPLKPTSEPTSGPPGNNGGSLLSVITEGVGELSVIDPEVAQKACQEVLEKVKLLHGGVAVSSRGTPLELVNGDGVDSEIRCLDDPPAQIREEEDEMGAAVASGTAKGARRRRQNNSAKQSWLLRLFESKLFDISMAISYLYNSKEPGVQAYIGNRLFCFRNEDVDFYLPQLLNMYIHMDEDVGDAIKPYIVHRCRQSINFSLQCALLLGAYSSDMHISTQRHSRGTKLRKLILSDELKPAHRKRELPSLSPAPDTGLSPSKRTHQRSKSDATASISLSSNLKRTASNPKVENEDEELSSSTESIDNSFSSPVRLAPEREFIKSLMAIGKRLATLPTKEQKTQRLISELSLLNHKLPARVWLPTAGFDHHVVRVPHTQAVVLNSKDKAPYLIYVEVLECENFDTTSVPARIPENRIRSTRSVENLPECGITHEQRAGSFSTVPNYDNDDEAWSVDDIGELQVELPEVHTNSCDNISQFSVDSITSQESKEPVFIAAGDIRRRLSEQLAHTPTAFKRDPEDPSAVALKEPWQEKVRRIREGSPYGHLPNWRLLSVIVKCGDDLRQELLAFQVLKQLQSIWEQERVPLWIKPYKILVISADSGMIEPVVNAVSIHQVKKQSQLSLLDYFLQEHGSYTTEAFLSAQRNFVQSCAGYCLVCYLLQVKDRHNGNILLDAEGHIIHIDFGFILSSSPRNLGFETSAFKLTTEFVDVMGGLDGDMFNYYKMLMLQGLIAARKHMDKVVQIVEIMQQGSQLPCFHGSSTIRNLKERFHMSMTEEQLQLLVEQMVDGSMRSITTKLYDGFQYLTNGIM

{"Compound Structure String": "Cc1nc(NC(=O)N2CCC[C@H]2C(N)=O)sc1-c1ccc(-n2cccn2)cc1", "IC50 (nM)": 920}

###

target: Phosphatidylinositol 3-kinase catalytic subunit type 3 (Homo sapiens, UniProt Q8NEB9); experiment: Inhibition of Vps34
Sequence (Q8NEB9 whole entry): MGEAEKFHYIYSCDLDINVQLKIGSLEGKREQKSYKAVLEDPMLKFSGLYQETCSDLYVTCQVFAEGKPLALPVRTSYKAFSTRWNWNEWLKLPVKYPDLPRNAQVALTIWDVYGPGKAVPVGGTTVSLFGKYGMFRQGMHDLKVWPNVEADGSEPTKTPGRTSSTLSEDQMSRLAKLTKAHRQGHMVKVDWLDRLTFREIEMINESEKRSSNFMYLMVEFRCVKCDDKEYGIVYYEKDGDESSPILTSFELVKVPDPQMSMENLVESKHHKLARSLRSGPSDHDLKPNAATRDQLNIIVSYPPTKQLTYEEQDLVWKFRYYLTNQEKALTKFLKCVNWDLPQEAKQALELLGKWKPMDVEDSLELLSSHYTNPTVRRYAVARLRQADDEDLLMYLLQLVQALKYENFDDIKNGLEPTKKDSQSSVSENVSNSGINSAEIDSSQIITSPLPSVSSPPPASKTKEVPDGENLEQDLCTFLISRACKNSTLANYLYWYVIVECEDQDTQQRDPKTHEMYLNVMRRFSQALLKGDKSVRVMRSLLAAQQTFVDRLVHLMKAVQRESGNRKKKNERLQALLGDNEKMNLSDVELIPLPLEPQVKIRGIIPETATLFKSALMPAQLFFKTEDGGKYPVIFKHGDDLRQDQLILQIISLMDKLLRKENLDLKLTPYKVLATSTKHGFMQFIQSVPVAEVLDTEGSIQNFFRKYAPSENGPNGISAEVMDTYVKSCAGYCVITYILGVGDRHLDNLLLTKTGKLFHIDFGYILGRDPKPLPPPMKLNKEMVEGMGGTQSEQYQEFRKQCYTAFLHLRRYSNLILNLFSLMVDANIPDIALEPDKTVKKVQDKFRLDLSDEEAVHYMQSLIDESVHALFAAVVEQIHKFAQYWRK
pIC50: −log10 of the molar value.
Reported Metric: pIC50

{"Compound Structure String": "Cc1nc(NC(=O)N2CCC[C@H]2C(N)=O)sc1-c1ccc(-n2cccn2)cc1", "Tested System": "Phosphatidylinositol 3-kinase catalytic subunit type 3 (Homo sapiens, UniProt Q8NEB9)", "Readout Value": "< 5.04"}
{"Compound Structure String": "CC(=O)c1ccc(-c2sc(NC(=O)NCCC(=O)NC(C)(C)C)nc2C)cc1", "Tested System": "Phosphatidylinositol 3-kinase catalytic subunit type 3 (Homo sapiens, UniProt Q8NEB9)", "Readout Value": "< 5.04"}
{"Compound Structure String": "Cc1cc(NC(=O)CCNC(=O)Nc2nc(C)c(-c3ccc(-n4cccn4)cc3)s2)no1", "Tested System": "Phosphatidylinositol 3-kinase catalytic subunit type 3 (Homo sapiens, UniProt Q8NEB9)", "Readout Value": "< 5.04"}
{"Compound Structure String": "CCn1nnc(CCNC(=O)Nc2nc(C)c(-c3ccc(S(C)(=O)=O)c(F)c3)s2)n1", "Tested System": "Phosphatidylinositol 3-kinase catalytic subunit type 3 (Homo sapiens, UniProt Q8NEB9)", "Readout Value": "< 5.04"}

###

We begin with a simple list: items and their reported log10 of Ki.
biological target: Phosphatidylinositol 4,5-bisphosphate 3-kinase catalytic subunit alpha isoform (Homo sapiens); experiment: Inhibition of recombinant GST-tagged PI3K p110alpha using [32P]ATP after 60 mins by scintillation proximity assay
Sequence (P42336 whole entry, canonical isoform): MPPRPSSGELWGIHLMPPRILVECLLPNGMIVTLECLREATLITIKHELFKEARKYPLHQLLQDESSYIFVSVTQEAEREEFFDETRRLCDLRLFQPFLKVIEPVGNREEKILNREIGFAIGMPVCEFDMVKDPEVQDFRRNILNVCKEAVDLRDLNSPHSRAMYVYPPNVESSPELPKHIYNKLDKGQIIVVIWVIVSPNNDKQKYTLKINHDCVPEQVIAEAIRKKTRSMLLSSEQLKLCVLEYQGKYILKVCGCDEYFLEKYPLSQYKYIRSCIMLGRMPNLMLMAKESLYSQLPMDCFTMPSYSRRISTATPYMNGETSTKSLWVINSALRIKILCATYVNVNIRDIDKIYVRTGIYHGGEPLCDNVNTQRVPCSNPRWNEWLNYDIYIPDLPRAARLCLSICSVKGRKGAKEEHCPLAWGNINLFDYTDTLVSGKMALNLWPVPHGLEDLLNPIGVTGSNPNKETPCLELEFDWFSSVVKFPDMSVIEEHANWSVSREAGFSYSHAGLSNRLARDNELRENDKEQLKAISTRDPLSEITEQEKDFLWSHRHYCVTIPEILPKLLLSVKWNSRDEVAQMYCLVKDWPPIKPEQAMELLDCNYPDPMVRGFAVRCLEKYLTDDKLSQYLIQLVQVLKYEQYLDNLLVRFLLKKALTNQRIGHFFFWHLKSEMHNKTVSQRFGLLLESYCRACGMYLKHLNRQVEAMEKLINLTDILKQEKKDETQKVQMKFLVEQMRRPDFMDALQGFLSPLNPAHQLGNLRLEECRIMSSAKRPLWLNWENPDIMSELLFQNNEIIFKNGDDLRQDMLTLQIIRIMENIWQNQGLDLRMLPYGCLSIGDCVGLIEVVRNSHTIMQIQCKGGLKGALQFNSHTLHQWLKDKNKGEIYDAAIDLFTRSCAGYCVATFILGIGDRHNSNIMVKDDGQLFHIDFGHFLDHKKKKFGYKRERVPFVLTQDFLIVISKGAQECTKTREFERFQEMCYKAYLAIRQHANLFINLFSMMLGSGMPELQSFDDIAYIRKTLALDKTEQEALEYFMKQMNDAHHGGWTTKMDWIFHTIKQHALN
Reported Metric: log10 of Ki (log10 of the value in nM)

{"Compound Structure String": "Cc1nc(NC(=O)N2CCC[C@H]2C(N)=O)sc1-c1ccc(S(C)(=O)=O)cc1", "log10 of Ki": 2.27}
{"Compound Structure String": "CC(=O)Nc1nc(C)c(-c2ccc(S(C)(=O)=O)c(Cl)c2)s1", "log10 of Ki": 1.54}
{"Compound Structure String": "CC(=O)Nc1nc(C)c(-c2ccc(S(N)(=O)=O)cc2)s1", "log10 of Ki": 2.04}
{"Compound Structure String": "CC(=O)c1ccc(-c2sc(NC(=O)NCCC(=O)NC(C)(C)C)nc2C)cc1", "log10 of Ki": 3.28}
{"Compound Structure String": "CC(=O)Nc1nc(C)c(-c2ccc(S(C)(=O)=O)cc2)s1", "log10 of Ki": 2.30}
{"Compound Structure String": "CC(=O)Nc1nc(C)c(-c2ccc(S(C)(=O)=O)c(Br)c2)s1", "log10 of Ki": 1.04}

###

biological target: Phosphatidylinositol 4,5-bisphosphate 3-kinase catalytic subunit delta isoform (Homo sapiens, UniProt O00329); assay: Inhibition of recombinant GST-tagged PI3K p110delta using [32P]ATP after 60 mins by scintillation proximity assay
Sequence (O00329 whole entry, canonical isoform): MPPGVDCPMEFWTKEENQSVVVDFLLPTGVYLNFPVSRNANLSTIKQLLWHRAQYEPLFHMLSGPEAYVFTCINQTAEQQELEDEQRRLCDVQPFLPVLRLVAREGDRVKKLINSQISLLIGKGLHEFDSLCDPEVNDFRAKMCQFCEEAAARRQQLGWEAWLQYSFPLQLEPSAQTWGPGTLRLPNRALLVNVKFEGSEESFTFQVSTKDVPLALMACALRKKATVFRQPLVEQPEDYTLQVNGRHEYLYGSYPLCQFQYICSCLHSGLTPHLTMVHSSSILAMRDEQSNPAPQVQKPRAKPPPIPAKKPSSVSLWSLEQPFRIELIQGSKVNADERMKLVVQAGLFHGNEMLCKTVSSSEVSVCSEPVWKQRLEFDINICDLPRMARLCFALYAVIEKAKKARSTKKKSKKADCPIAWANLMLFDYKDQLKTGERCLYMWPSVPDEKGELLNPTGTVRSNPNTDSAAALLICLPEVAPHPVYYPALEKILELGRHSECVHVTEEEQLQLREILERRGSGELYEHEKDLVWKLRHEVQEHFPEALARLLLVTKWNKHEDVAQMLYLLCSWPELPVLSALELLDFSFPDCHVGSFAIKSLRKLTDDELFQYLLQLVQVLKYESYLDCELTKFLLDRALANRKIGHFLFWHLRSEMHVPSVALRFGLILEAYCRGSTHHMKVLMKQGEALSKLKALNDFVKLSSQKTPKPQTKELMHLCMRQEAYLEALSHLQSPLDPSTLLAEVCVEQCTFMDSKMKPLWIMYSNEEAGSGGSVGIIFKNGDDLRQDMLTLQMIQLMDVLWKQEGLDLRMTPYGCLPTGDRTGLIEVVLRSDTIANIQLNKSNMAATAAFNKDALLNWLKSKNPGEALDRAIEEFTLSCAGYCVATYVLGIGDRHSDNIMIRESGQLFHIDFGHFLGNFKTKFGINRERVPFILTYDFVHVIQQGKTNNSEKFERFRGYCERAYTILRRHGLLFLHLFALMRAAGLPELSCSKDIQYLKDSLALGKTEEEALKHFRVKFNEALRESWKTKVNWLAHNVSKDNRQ

{"Compound Structure String": "CC(=O)Nc1nc(C)c(-c2ccc(S(N)(=O)=O)cc2)s1", "U": "nM", "Ki": 210}
{"Compound Structure String": "Cc1nc(NC(=O)N2CCC[C@H]2C(N)=O)sc1-c1ccc(S(C)(=O)=O)cc1", "U": "nM", "Ki": 3620}
{"Compound Structure String": "CC(=O)Nc1nc(C)c(-c2ccc(S(C)(=O)=O)cc2)s1", "U": "nM", "Ki": 190}
{"Compound Structure String": "CC(=O)Nc1nc(C)c(-c2ccc(S(C)(=O)=O)c(C#N)c2)s1", "U": "nM", "Ki": 79}
{"Compound Structure String": "CC(=O)Nc1nc(C)c(-c2ccc(S(C)(=O)=O)c(Br)c2)s1", "U": "nM", "Ki": 61}
{"Compound Structure String": "CC(=O)Nc1nc(C)c(-c2ccc(-n3cccn3)cc2)s1", "U": "nM", "Ki": 19}
{"Compound Structure String": "CC(=O)Nc1nc(C)c(-c2ccc(S(C)(=O)=O)c(C(F)(F)F)c2)s1", "U": "nM", "Ki": 74}
{"Compound Structure String": "CC(=O)c1ccc(-c2sc(NC(=O)NCCC(=O)NC(C)(C)C)nc2C)cc1", "U": "nM", "Ki": 740}
{"Compound Structure String": "Cc1cc(NC(=O)CCNC(=O)Nc2nc(C)c(-c3ccc(-n4cccn4)cc3)s2)no1", "U": "nM", "Ki": 4}
{"Compound Structure String": "CCn1nnc(CCNC(=O)Nc2nc(C)c(-c3ccc(S(C)(=O)=O)c(F)c3)s2)n1", "U": "nM", "Ki": 470}
{"Compound Structure String": "CC(=O)Nc1nc(C)c(-c2ccc(C(C)=O)cc2)s1", "U": "nM", "Ki": 260}

Data provenance is ChEMBL document CHEMBL2069199.
